Biological target: T1, human α-CGRP (Homo sapiens, UniProt P06881)
T1 construct: 1-37 (WT); purchased GenScript Corporation or Global Peptide Services
T1 sequence (P06881 83-119 limits assumed): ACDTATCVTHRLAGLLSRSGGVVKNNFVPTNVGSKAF
Experiment: Biacore SPR affinity of Fab fragments to N-biotinylated human α-CGRP on SA chip
Format: binding
Conditions: 37° C., screening mode except underlined values
PROPERTY: α-human koff (s⁻¹)
Give the quantity in s⁻¹, number only.

Ask: Value lookup for α-human koff; key = M52: G1 variant; L1 R28N; L2 L561; H2 E54K A57N S58A; HC-FW3 L99T A100V (antibody, V domains shown) VH: EVQLVESGGGLVQPGGSLRLSCAASGFTFSNYWISWVRQAPGKGLEWVAEIRSKSDNAATHYAEAVKGRFTISRDNAKNSLYLQMNSLRAEDTAVYYCTVYFDYGLAIQNYWGQGTLVTVSS VL: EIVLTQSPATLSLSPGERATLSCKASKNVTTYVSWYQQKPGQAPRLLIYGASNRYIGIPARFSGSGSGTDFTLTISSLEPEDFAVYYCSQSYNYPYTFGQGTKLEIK
Reply: 0.000281
